# assayTarget: Env of HIV-1 strain X1254_c3 (HIV-1)
# testDetails: cell-based or functional assay
readoutLabel: neutralization IC50 (µg/mL)
Give the value, in units of µg/mL, as a plain number.

Prompt line: neutralization IC50 lookup needed for γ59κ11 (antibody, V domains shown) VH: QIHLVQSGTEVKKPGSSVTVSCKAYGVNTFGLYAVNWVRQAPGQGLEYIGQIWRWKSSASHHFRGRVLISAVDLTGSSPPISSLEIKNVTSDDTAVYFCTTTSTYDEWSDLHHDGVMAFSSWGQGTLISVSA VL: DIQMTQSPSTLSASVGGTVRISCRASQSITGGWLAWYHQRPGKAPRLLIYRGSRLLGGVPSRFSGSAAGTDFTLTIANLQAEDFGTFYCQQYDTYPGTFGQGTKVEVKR , thanks.
Response line: 4.67
